Each item that follows carries a reported IC50.
Biological target: Serine hydroxymethyltransferase, mitochondrial (Homo sapiens)
Sequence (P34897 whole entry): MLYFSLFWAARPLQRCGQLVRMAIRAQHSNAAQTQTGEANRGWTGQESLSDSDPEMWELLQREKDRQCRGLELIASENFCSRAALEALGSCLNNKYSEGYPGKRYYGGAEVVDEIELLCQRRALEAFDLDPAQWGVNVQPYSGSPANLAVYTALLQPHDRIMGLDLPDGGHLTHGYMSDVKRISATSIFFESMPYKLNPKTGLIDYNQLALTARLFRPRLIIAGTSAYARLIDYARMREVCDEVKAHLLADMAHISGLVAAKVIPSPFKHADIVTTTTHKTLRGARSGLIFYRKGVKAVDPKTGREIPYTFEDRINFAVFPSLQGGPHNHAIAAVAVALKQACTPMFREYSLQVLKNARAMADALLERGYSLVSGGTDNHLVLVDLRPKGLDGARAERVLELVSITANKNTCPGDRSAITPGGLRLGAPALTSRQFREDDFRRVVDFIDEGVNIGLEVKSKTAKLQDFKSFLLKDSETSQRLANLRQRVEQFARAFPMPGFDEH
Assay: Inhibition of His-tagged human recombinant SHMT2 expressed in Escherichia coli BLR(DE3) assessed as reduction in NADPH level using L-serine, THF and NADP+ incubated for 5 mins by SHMT2-MTHFD coupled reaction based fluorescence assay
Conditions: read-out: IC50
Answer format: numeric, µM implied, no suffix.

compound	IC50 [µM]
Cc1c(C(=O)N2CCOCC2)oc2c1-c1nn(CC(=O)NC3CCCCC3C)cc1CC2 (stereo not given)	3.16
Cc1c(C(=O)NCCCN2CCOCC2)oc2c1-c1[nH]ncc1CC2	4.17

Task item: Look at this compound and give its reported IC50. Cc1cccc(NC(=O)Nc2cn(CC(C)C)c(=O)c3ccccc23)n1
Reply: 2.57

Task item: Look at this compound and give its reported IC50. CCOC(=O)c1c(C)oc2c1c1c(c3ccccc32)OCN(CCCC(=O)O)C1
Reply: 1.35

Task item: Look at this compound and give its reported IC50. COc1cccc(NS(=O)(=O)c2ccc3c4c2CC(=O)N4CC(C)S3)c1 (stereo not given)
Reply: 3.63

Task item: Look at this compound and give its reported IC50. COc1ccc(OC)c(Nc2c(-c3ccc4c(c3)CCCC4)c(=O)c2=O)c1
Reply: 2.4

Task item: Look at this compound and give its reported IC50. COc1cc(OC)c(NC(=O)NCCC2=CSC3CC(C)CCC23)cc1Cl (stereo not given)
Reply: 7.08
